compounds and their reported normalized growth
experiment: chemical genetic growth profiling, strain panel (AID 1159580);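 note: tested at 20 µM; growth read once vehicle control cultures reached saturation at 30 °C; 1 = growth at the plate median or of vehicle wells; lower values mean less growth of the strain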; conditions: S. cerevisiae deletion strains, growth OD, locus YGR078C, strain PAC10, active compounds read low
About 2,000 (36%) of roughly 5,500 compounds were called active. Roughly 18% stayed inconclusive and do not appear here. The list shows a part of the results.
Parameter Measured: normalized growth

> print(dat)
                                    compound  parameter.measured  measured
 1               CN(C)C(=O)Nc1ccc(Cl)c(Cl)c1   normalized growth     0.982
 2  Nc1ccn(C2O[C@H](CO)[C@@H](O)[C@H]2O)c(=O)n1 (stereo partly specified)   normalized growth      1.02
 3   COc1cc2c(cc1-c1cc3cc4ccoc4cc3oc1=O)OCO2   normalized growth     0.993
 4  CC(=O)Nc1ccc(S(=O)(=O)NC2Cc3ccccc3C2)cc1   normalized growth         1
 5                 Nc1cc(-c2ccncc2)c[nH]c1=O   normalized growth     0.527
 6  CNC(=O)[C@H]1O[C@@H](n2cnc3c(NCc4ccc(I)cc4)nc(Cl)nc32)[C@H](O)[C@@H]1O   normalized growth      0.99
 7                           CCCC(CCC)C(=O)O   normalized growth     0.989
 8            Cc1[nH]c(=O)c(C#N)cc1-c1ccncc1   normalized growth      1.01
 9  O=[N+]([O-])c1cccc(-c2csc(Nc3ccccc3Cl)n2)c1   normalized growth     0.938
10  COc1c2ccoc2nc2c(OC)c(OCC(O)C(C)(C)O)ccc12 (stereo unspecified)   normalized growth      1.02
11  C/C(=N/Nc1c(Cl)cc(Cl)cc1Cl)c1cc(F)ccc1OC(=O)c1ccccc1F   normalized growth     0.983

----------
molecules and their reported normalized growth
experiment: chemical genetic growth profiling, strain panel (AID 1159580);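 note: tested at 20 µM; growth read once vehicle control cultures reached saturation at 30 °C; 1 = growth at the plate median or of vehicle wells; lower values mean less growth of the strain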; details: S. cerevisiae deletion strains, growth OD, locus YDL005C, strain med2, active compounds read low
The whole screen tested about 5,500 compounds, of which about 2,000 (36%) were called active. About 18% were inconclusive and are not listed. The list shows a part of the results.

Molecule	normalized growth
CC1=C2[C@H]3OC(=O)[C@@H](C)[C@@H]3CC[C@@]2(C)C=CC1=O	0.964
CCC(=O)Nc1ccc(Cl)c(Cl)c1	0.981
CCCCCC1C(=O)CCC1CC(=O)O (stereo not drawn)	0.982
CNCCCN1c2ccccc2CCc2ccccc21	1.03
CC(CCC(=O)O)[C@H]1CCC2C3CC[C@@H]4CCCC[C@]4(C)C3CC[C@@]21C (stereo partly drawn)	0.999
Cc1cc2c(C(C)C)c(O)c(O)c(C=O)c2c(O)c1-c1c(C)cc2c(C(C)C)c(O)c(O)c(C=O)c2c1O	0.971
CSc1ccc2c(c1)N(CCC1CCCCN1C)c1ccccc1S2 (stereo not drawn)	1.05
C[C@@H]1CC2C3CCC4=CC(=O)C=C[C@]4(C)[C@@]3(F)[C@@H](O)C[C@]2(C)[C@H]1C(=O)CO (stereo partly drawn)	0.997
C=Cc1c(C)c2[n-]c1=Cc1[n-]c(c(CC)c1C)C=c1[n-]c3c(c1C)C(=O)C(C(=O)[O-])C=3c1[n-]c(c(C)c1CCC(=O)[O-])C=2.[Cu] (stereo not drawn)	1.08
O=C(O)CCC(=O)Nc1ccc(S(=O)(=O)Nc2nccs2)cc1	0.987
CCCCC[C@H](CC(=O)NO)C(=O)N[C@H](C(=O)N1CCC[C@H]1CO)C(C)C	1.02
Cc1nc2ccccn2c(=O)c1CCN1CCC(C(=O)c2ccc(F)cc2)CC1	0.973
CC(CCC(=O)O)[C@H]1CCC2C3C[C@H](O)[C@@H]4C[C@H](O)CC[C@]4(C)C3CC[C@@]21C (stereo partly drawn)	0.973
C[C@H](CCC(=O)O)[C@H]1CCC2C3C(CC[C@@]21C)[C@@]1(C)CC[C@@H](O)C[C@H]1C[C@@H]3O (stereo partly drawn)	0.989
CN(C)C(=O)Nc1ccc(Cl)c(Cl)c1	1
COc1cc(OC)c(OC)cc1C=O	0.985
S=P(N1CC1)(N1CC1)N1CC1	1.01
O=c1[nH]cnc2[nH]ncc12	0.998
C[C@@H]1CC2C3C[C@H](F)C4=CC(=O)C=C[C@]4(C)[C@@]3(F)[C@@H](O)C[C@]2(C)[C@@]1(O)C(=O)COC(=O)C(C)(C)C (stereo partly drawn)	1
O=c1cc(-c2ccccc2)oc2cccc(O)c12	0.994
CNC(=O)Oc1ccc2c(c1)[C@]1(C)CCN(C)[C@@H]1N2C	1.02
CN[C@@H]1[C@H](OC2[C@H](O[C@H]3[C@H](O)[C@@H](O)[C@H](N=C(N)N)[C@@H](O)[C@@H]3N=C(N)N)O[C@@H](C)[C@]2(O)C=O)O[C@@H](CO)[C@H](O)[C@H]1O (stereo partly drawn)	1.01
CCCC(CCC)C(=O)O	1.01
C=C1C2CC[C@@]3(C)[C@H](c4ccoc4)OC(=O)C[C@]13O[C@H]1CC(O)C(C)(C)C(CC(=O)OC)[C@@]21C (stereo partly drawn)	0.952
COc1c2ccoc2nc2c(OC)c(OCC(O)C(C)(C)O)ccc12 (stereo not drawn)	1.01
CCCC(C(=O)OCCN(CC)CC)(c1ccccc1)c1ccccc1	1
C/C=C/C(=O)N(CC)c1ccccc1C	1
OC[C@H]1OC([S-])[C@H](O)[C@@H](O)[C@@H]1O.[Au+] (stereo partly drawn)	1.02
N[C@@H]1[C@@H](O)[C@H](O)[C@@H](CO)O[C@H]1O	1.02
O=c1cc(-c2ccccc2)oc2cc(O)c(O)c(O)c12	0.636
CC(C)CCCC(C)C1CCC2C3CC[C@H]4CCCC[C@]4(C)C3CC[C@]12C (stereo partly drawn)	1.02
CCN(CC)C(C)CN1c2ccccc2Sc2ccccc21 (stereo not drawn)	1
COc1c(Cl)ccc(Cl)c1C(=O)O	0.975
N[C@H](Cc1cc(I)c(Oc2ccc(O)c(I)c2)c(I)c1)C(=O)O	1
C=C1[C@H]2CC[C@@]3(C)[C@H](c4ccoc4)OC(=O)C[C@]13O[C@H]1C[C@H](O)C(C)(C)[C@H](CC(=O)OC)[C@]12C	1.02
COc1ccc(C(=O)N2CCCC2=O)cc1	0.974
C[C@]12C=CC(=O)C=C1CCC1C3C[C@@H](O)[C@](O)(C(=O)CO)[C@@]3(C)C[C@H](O)[C@@]12F (stereo partly drawn)	0.997
Nc1ccn(C2O[C@H](CO)[C@@H](O)[C@H]2O)c(=O)n1 (stereo partly drawn)	0.983
